system: U251 CNS
Outcomes: active, inactive

compound: CCOC(=O)c1ccccc1OC(=O)NNc1ccccc1
study.system: U251 CNS
group: inactive

compound: O=C1CC[C@H](N2C(=O)c3cccc4c(Cc5ccc(CN6CCOCC6)cc5)ccc2c34)C(=O)N1
study.system: U251 CNS
group: inactive

compound: N.N.NCCCCCN.O=C([O-])CCl.O=C([O-])CCl.O=C([O-])CCl.O=C([O-])CCl.[Pt+4].[Pt+4]
study.system: U251 CNS
group: inactive

compound: Cc1cc(Cl)cc2c(N=Nc3ccc(S(N)(=O)=O)cc3)c(O)[nH]c12
study.system: U251 CNS
group: inactive

compound: COc1ccc(C(=O)Nc2ncc(Cc3cccc(Cl)c3)s2)cc1OC
study.system: U251 CNS
group: inactive

compound: COC1=CC(c2ccc[nH]2)=N/C1=C\c1[nH]c(C)c(CC(=O)OCc2ccccc2)c1CCC(=O)OCc1ccccc1
study.system: U251 CNS
group: active

compound: O=C1c2[nH]cc(CNC3CN4CCC3CC4)c2C(=O)c2c1c(O)c1ccccc1c2O (centres undefined)
study.system: U251 CNS
group: inactive

compound: C[C@]12CCc3nc(Nc4cccc(O)c4)sc3C1=CC[C@@H]1[C@@H]2CC[C@]2(C)/C(=N\NC(N)=S)CC[C@@H]12
study.system: U251 CNS
group: inactive

compound: O=C(COc1ccc(/C=C2\COc3ccccc3C2=O)cc1)Nc1nccs1
study.system: U251 CNS
group: inactive

---

system: SK-OV-3 ovarian; experiment: NCI tumour cell line growth inhibition, 48 h

compound: Cc1cc(Nc2ccc(OCc3ccccc3)cc2)nc2cc(O)ccc12
TGI: 26.7 µM

compound: NC1=CC(=O)c2cccnc2C1=O
TGI: 17.8 µM

compound: CC(C)(C)N1CCC1CN (configuration not stated)
TGI: > 100 µM

compound: O=C(c1cc2ccccc2[nH]1)N1C2CCC1CN(CCOC(c1ccc(F)cc1)c1ccc(F)cc1)CC2 (configuration not stated)
TGI: > 100 µM

compound: O=C1CC(c2c(-c3ccccc3)[nH]c3ccccc23)C(=O)N1 (configuration not stated)
TGI: > 100 µM

compound: Cn1cc(C2=C(c3ccccc3[N+](=O)[O-])C(=O)NC2=O)c2ccccc21
TGI: > 25 µM

compound: COC(=O)/C(=N\NC(N)=O)C(C(=O)C(=O)Nc1ccccc1OC)c1nc2ccc([N+](=O)[O-])cc2[nH]c1=O (configuration not stated)
TGI: > 100 µM

compound: COc1ccccc1NC(=O)C1=C(C)NC(C)=C(C(=O)Nc2ccccc2OC)C1C1=CC=COC1
TGI: 71.2 µM

compound: CCOP(=O)(C=C=C1CCC2[C@@H]3CCc4cc(OC)ccc4C3CC[C@]12C)OCC (some centres not stated)
TGI: 31.8 µM

compound: COC(=O)C(Cc1nc2ccccc2[nH]c1=O)/C(=N\NC(C)(C)C)C(=O)Nc1c(C)cc(Br)cc1C (configuration not stated)
TGI: > 100 µM

compound: Cc1cc(=O)[nH]c(N/N=C/c2cc(Br)ccc2O)n1
TGI: > 100 µM

compound: O=C(C=C1SCCS1)/C=C\c1ccc(Cl)cc1
TGI: > 100 µM

compound: COc1cc(C2S/C(=C/c3ccccc3)C(=O)N2c2ccc(NC(C)=O)cc2)cc(OC)c1OC (configuration not stated)
TGI: > 100 µM

compound: N#C[C@H](C(=O)c1ccccc1F)c1nc2ccccc2s1
TGI: > 100 µM

compound: O=C(O)CSC(CC1(c2ccc(Cl)cc2)NC(=O)CS1)c1ccc(Cl)cc1 (configuration not stated)
TGI: > 100 µM

compound: CC(=O)N(C)c1ccc(N=CN(C)C)cc1
TGI: > 100 µM

compound: C=C(C)C1CC/C(C)=C/CCC2(C)OC2CC/C(CO)=C\C1O (configuration not stated)
TGI: > 100 µM

compound: Nc1ccc2nc3c(nc2c1)C(=O)c1ccccc1-3
TGI: > 100 µM

compound: COc1ccc(-c2csc(=Nc3ccccc3)n2CCCN(C)C)cc1
TGI: 39.4 µM

compound: CC(C)N1CC2CN(Cc3ccccc3)CC(C1)C2=O
TGI: > 100 µM

compound: CC12OOC(c3ccccc31)c1c2ccc2ccccc12 (configuration not stated)
TGI: 34.3 µM

compound: CCCCCCCCCCCCCCCCCCNc1ccn(C2OC(COP(=O)(O)OCC3OC(n4cc(C)c(=O)[nH]c4=O)CC3F)C(O)C2O)c(=O)n1 (configuration not stated)
TGI: 18 µM

---

tested on: HOP-62 NSCLC; assay: NCI tumour cell line growth inhibition, 48 h
endpoint.name: TGI

compound: COc1nc2ccc(COc3ccc(C(=O)NC(CCC(=O)O)C(=O)O)cc3)cc2nc1OC (stereo not given)
result: > 10 µM
//
compound: CSc1ccc(-c2ccccc(=O)c2O)cc1
result: 50.9 µM
//
compound: COc1cccc2ccc(C(=O)c3ccccc3)nc12
result: > 100 µM
//
compound: CCCC(=O)Nc1cc(/C=C/C(=O)N2CC(CCl)c3c2cc(OCc2ccccc2)c2[nH]cc(C)c32)n(C)c1 (stereo not given)
result: 0.453 µM
//
compound: COc1cc2nc(Nc3cccc(Br)c3)nc(Nc3cccc(Br)c3)c2cc1OC
result: 33.6 µM
//
compound: Cc1ccc(S(=O)(=O)N2CCN(S(=O)(=O)c3ccc(C)cc3)CCN(S(=O)(=O)c3ccc(C)cc3)Cc3cc(C#N)c(C#N)cc3CN(S(=O)(=O)c3ccc(C)cc3)CC2)cc1
result: > 100 µM
//
compound: CN(C)CCCC1c2ccccc2Oc2ccc(C(F)(F)F)cc21 (stereo not given)
result: 31 µM
//
compound: CCCC(=O)NC(Nc1cc(C)ccn1)(C(=O)OCC)C(F)(F)F (stereo not given)
result: > 100 µM
//
compound: NC(CSCc1ccc(I)cc1)C(=O)O (stereo not given)
result: > 100 µM
//
compound: CC(C)(C)n1c(=O)n2n(c1=O)Cc1cccc3cccc(c13)C2
result: 33.2 µM

---

tested on: HCT-116 colon; test: NCI tumour cell line growth inhibition, 48 h

molecule: C=C(C)C(=O)O[C@H]1CC2=C[C@@H](C[C@@]3(C)O[C@@H]3[C@H]3OC(=O)C(=C)[C@@H]31)OC2=O
TGI: 4.61 µM

molecule: Nc1cc(F)ccc1CC(=O)O
TGI: > 100 µM

molecule: O=C(NC(Cl)(C(F)(F)F)C(F)(F)F)c1ccc(F)cc1
TGI: > 100 µM

molecule: O=c1cc(-c2ccccc2)oc2ccc(OC/C(=N/O)c3ccccc3)cc12
TGI: > 50 µM

molecule: O=C(O)CSC(CC1(c2ccc(Cl)cc2)NC(=O)CS1)c1ccc(Cl)cc1 (stereo unspecified)
TGI: > 100 µM

molecule: CCOP(=O)(OCC)C(C)(C)N(C)/C(F)=N/C(F)(F)F
TGI: > 100 µM

molecule: CC1=Nc2ccccc2NC(c2ccoc2)C1 (stereo unspecified)
TGI: > 100 µM

molecule: C=CCC(N[C@@H](CO)c1ccccc1)c1cn(Cc2ccccc2Cl)c(=O)n(Cc2ccccc2Cl)c1=O (stereo partly specified)
TGI: > 100 µM

molecule: O=C(c1ccccc1)c1ccc(N2C(=O)/C(=C/Cc3ccco3)N=C2c2ccccc2)c(N2C(=O)/C(=C/Cc3ccco3)N=C2c2ccccc2)c1
TGI: > 100 µM

molecule: C=C=C(C(=O)OC)S(=O)c1ccccc1[N+](=O)[O-] (stereo unspecified)
TGI: > 100 µM

molecule: CC1=NN(C(=O)c2ccccc2O)C(=O)/C1=C/c1cccc(O)c1
TGI: > 100 µM

molecule: O=C1CC(c2c(-c3ccccc3)[nH]c3ccccc23)C(=O)N1 (stereo unspecified)
TGI: > 100 µM

molecule: CC12OOC(c3ccccc31)c1c2ccc2ccccc12 (stereo unspecified)
TGI: 3.21 µM

molecule: Oc1ccc([Te]CCNCC[Te]c2ccc(O)cc2)cc1
TGI: 28.4 µM

molecule: CCOC(=O)c1ccc(Nc2sc(C(=O)c3ccc(Br)cc3)c(N)c2C#N)cc1
TGI: > 100 µM

molecule: COc1ccccc1C1C(Cl)C(=O)N1n1cnc2ccccc2c1=O (stereo unspecified)
TGI: > 100 µM

molecule: O=C(c1ccco1)c1nc2cc(C(F)(F)F)ccc2nc1C(F)(F)F
TGI: > 100 µM

molecule: Cn1cc(C2=C(c3ccccc3[N+](=O)[O-])C(=O)NC2=O)c2ccccc21
TGI: > 25 µM

molecule: COc1ccc(OC)c(CSc2ccc(OC)c(OC)c2)c1
TGI: > 100 µM

molecule: Cc1nc2c(c(=O)[nH]1)S/C(=C(/C#N)c1nc3ccccc3[nH]1)N2c1ccccc1
TGI: > 100 µM

molecule: C1=NCCN2CCN(CCN=Cc3ccccc3OCc3cccc(n3)COc3ccccc31)CC2
TGI: 18.8 µM

---

test system: HCT-15 colon; experiment: NCI tumour cell line growth inhibition, 48 h

molecule: CN1CCC(COc2cnc(-c3cccc(Cn4nc(-c5cccc(C#N)c5)ccc4=O)c3)nc2)CC1
GI50: 3470 nM

molecule: CO/C=C/C(=O)c1cc2cnc3c(=N)cc(NC(=O)C(C)C)c([nH]1)c23
GI50: 43.1 nM

molecule: C=C(C)[C@@H]1CC[C@]2(COCCC#N)CC[C@]3(C)[C@H](CC[C@@H]4[C@@](C)(CCCNCCC#N)[C@H](C(=C)C)CC[C@]43C)[C@@H]12
GI50: 7660 nM

molecule: CCC(CC)c1nc(Nc2ccc(C(=O)OC)cc2)c2ccccc2n1
GI50: 11000 nM

molecule: Nc1c(C(=O)c2ccc(-c3cccnc3)cc2)cnn1-c1ccc(F)cc1
GI50: > 20200 nM

molecule: N.N.NCCCCCN.O=C([O-])CCl.O=C([O-])CCl.O=C([O-])CCl.O=C([O-])CCl.[Pt+4].[Pt+4]
GI50: 31800 nM

molecule: c1ccc(N2N=C(c3cccc(Nc4ccncc4)c3)CC2c2ccc3c(c2)OCO3)cc1 (stereo not drawn)
GI50: 1490 nM

molecule: CCOC(=O)c1ccccc1OC(=O)NNc1ccccc1
GI50: 862 nM

molecule: CCOC(=O)C1=C(C)N=c2s/c(=C\c3ccccc3O)c(=O)n2C1c1ccc(OC)c2ccccc12 (stereo not drawn)
GI50: 8690 nM

molecule: CC[C@@H]1[C@@H](C)O[C@@](O)([C@@H](C)[C@H](O)[C@H](C)[C@H]2OC(=O)/C=C/C=C/[C@H](C)[C@@H]([C@@H](C)[C@@H](O)[C@H](C)[C@@]3(O)C[C@@H](O[C@H]4C[C@@H](O)[C@H](O)C(C)O4)[C@H](CC)[C@@H](C)O3)OC(=O)/C=C/C=C/[C@@H]2C)C[C@H]1O[C@@H]1C[C@@H](O)[C@H](O)C(C)O1 (stereo partly drawn)
GI50: 459 nM

molecule: OC(c1cc(-c2cccc(Cl)c2)nc2ccccc12)C1CCCCN1 (stereo not drawn)
GI50: 1910 nM

molecule: COc1ccc2sc3cccc(NCCN(C)C)c3c(=O)c2c1
GI50: 2240 nM

molecule: CC1(C)N=C(N)N=C(N)N1c1ccc(CCCCc2ccccc2)c(Cl)c1
GI50: 522 nM
